Data provenance is ChEMBL document CHEMBL1152671.

# protocolDetails: Therapeutic index, ratio of TC50 for african green monkey (Cercopithecus aethiops) Vero cells to IC50 for chloroquine-sensitive Plasmodium falciparum D6 infected in african green monkey (Cercopithecus aethiops) Vero cells
# Assay type: cell-based
# studyConditions: read-out: TI
measure: selectivity ratio
Give the value as a plain number.

[ask] Determine its reported selectivity ratio: O[C@]12C=C(c3nccc4c3[nH]c3ccccc34)[C@@H]3CCN(CCCC/C=C\CC1)C[C@@]31C[C@@H]3/C=C\CCCCN3[C@H]12
[reply] 44

----------
# Tested on: Cryptococcus neoformans
# protocolDetails: Antifungal activity against Cryptococcus neoformans after 24 hrs by alamar blue assay
# Format: functional
Activity calls are given as the source filed them. The rule behind the calls is not given here.

{"columns": ["testSmiles", "MIC"],
 "data": [
  ["CC(=O)Nc1ccc2[nH]c3c(C4=C[C@@]5(O)CC/C=C\\CCCCN6CC[C@@H]4[C@]4(C[C@@H]7/C=C\\CCCCN7[C@H]45)C6)nccc3c2c1", "inactive"],
  ["CCCC(=O)Nc1cccc2c1[nH]c1c(C3=C[C@@]4(O)CC/C=C\\CCCCN5CC[C@@H]3[C@]3(C[C@@H]6/C=C\\CCCCN6[C@H]34)C5)nccc12", "inactive"],
  ["O=C(Nc1ccc2[nH]c3c(C4=C[C@@]5(O)CC/C=C\\CCCCN6CC[C@@H]4[C@]4(C[C@@H]7/C=C\\CCCCN7[C@H]45)C6)nccc3c2c1)C1CCCCC1", "inactive"]
]}
